Counter-ions that a name gives are not always drawn.
// reported melting point for each item listed

So, O=S(=O)(c1cccc2ccccc12)c1n[nH]c2ccc(CN3CCNCC3)cc12 (as salt: hydrochloride) [Example 195] ? Its melting point was > 200 °C

So, CN(C)CCc1ccc2[nH]nc(S(=O)(=O)c3ccccc3)c2c1 (as salt: hydrochloride) [Example 176] ? Its melting point was 108 to 110 °C

So, CN1CCN(Cc2ccc3[nH]nc(S(=O)(=O)c4cccc5ccccc45)c3c2)CC1 (as salt: HCl) [Example 196] ? Its melting point was > 200 °C

So, CC(C)NCCOc1ccc2c(c1)c(S(=O)(=O)c1cccc3ccccc13)nn2C (as salt: hydrochloride) [Example 45] ? Its melting point was 274 to 276 °C (dec.)

So, CC(c1ccc2[nH]nc(S(=O)(=O)c3cccc4ccccc34)c2c1)N1CCN(C)CC1 (centres unmarked) [Example 203] ? Its melting point was 183 to 185 °C
